- STUDY SYSTEM: isolated recombinant JAK2 kinase domain (Homo sapiens (Human), UniProt O60674)
- Sequence (O60674 849-1124): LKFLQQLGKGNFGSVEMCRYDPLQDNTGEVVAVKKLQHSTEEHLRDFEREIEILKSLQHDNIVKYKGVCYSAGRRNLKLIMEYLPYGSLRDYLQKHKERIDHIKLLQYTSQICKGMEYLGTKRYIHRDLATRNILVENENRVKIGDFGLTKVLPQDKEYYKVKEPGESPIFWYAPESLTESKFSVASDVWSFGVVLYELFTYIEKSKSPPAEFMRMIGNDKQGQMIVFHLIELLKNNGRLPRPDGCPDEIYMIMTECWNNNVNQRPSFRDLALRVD
- METHOD SUMMARY: JAK enzyme assay (Caliper LabChip peptide phosphorylation), JAK2
- PARTICULARS: 0.2 nM JAK2, ATP 25 μM, Morrison tight binding model
pKi: −log10 of the molar value.
QUANTITY: pKi

INSERT INTO results (smiles_str, observed_value) VALUES
  ('Nc1nn2cccnc2c1C(=O)Nc1c[nH]nc1-c1cc(Cl)ccc1OC(F)F', 9.77),
  ('O=C(Nc1c[nH]nc1-c1cc(Cl)ccc1OC(F)F)c1cnc2[nH]ccc2n1', 9.47),
  ('COc1ccn2ncc(C(=O)Nc3c[nH]nc3-c3cc(Cl)ccc3OC(F)F)c2n1', 10.40),
  ('O=C(Nc1c[nH]nc1-c1cc(Cl)ccc1OC(F)F)c1coc2cccnc12', 9.31);
